molecular target: WDR5 (Homo sapiens (Human)); assay: TR-FRET binding assay (displacement of 10mer-Thr-FAM probe from WDR5); details: read-out: Ki for Inhibition of WDR5 by TR-FRET assay; TR-FRET, 10mer-Thr-FAM probe, WDR5-His tag 2 nM, pH 7.0
API: label(entry) gives Met if the entry's Ki is strictly smaller than 0.3 nM; on equality or larger values it gives Not met.

Previously resolved entries follow.
>  <SMILES_DATA>
CCn1cc(-c2cc(CN3CCOC3=N)cc(C(=O)N[C@H](c3ccc(Cl)c(Cl)c3)C3CC3)c2)c(C(F)(F)F)n1

>  <LABEL>
Met

$$$$
>  <SMILES_DATA>
Cc1cc([C@@H](NC(=O)c2cc(Cn3ccn(C)c3=N)cc(OC(F)(F)F)c2)C2CC2)ccc1F

>  <LABEL>
Met

$$$$
>  <SMILES_DATA>
CCOc1c(C(=O)N[C@H](c2ccc(F)c(C)c2)C2CC2)cc(Cn2ccccc2=N)cc1-c1cn(C)nc1C(F)(F)F

>  <LABEL>
Met

$$$$

Check if Ki falls below 0.3 nM for COc1cc(CNC(=O)c2cc(Cn3ccn(C)c3=N)cc(-c3ccc(F)cc3OC(F)F)c2)cc(OC)c1 . Met

Check if Ki falls below 0.3 nM for COc1ccnc(CNC(=O)c2cc(Cn3ccn(C)c3=N)cc(-c3cc(C)cnc3OC)c2)c1 . Not met

====

# Ki annotations
biological target: WDR5 (Homo sapiens (Human), UniProt P61964); test: TR-FRET binding assay (displacement of 10mer-Thr-FAM probe from WDR5); details: read-out: Ki for Inhibition of WDR5 by TR-FRET assay; TR-FRET, 10mer-Thr-FAM probe, WDR5-His tag 2 nM, pH 7.0
Write down the numeric answer in nM and omit the unit.

Some solved entries appear below for comparison.
>  <MOLECULE>
Cc1ccnc(C(NC(=O)c2cc(Cn3ccn(C)c3=N)cc(OC(F)(F)F)c2)C2CC2)c1 (stereo not shown) [Example 145]

>  <Ki, nM>
0.95

$$$$
>  <MOLECULE>
Cc1ccnc(C(NC(=O)c2cc(Cn3ccn(C)c3=N)cc(-c3cccn3C)c2)C2CC2)c1 (stereo not shown) [Example 11]

>  <Ki, nM>
0.83

$$$$
>  <MOLECULE>
Cc1cc([C@@H](NC(=O)c2cc(Cn3ccn(C)c3=N)cc(-c3ncnc4c3CCCC4)c2)C2CC2)ccc1F [Example 94]

>  <Ki, nM>
36

$$$$

Next item in the queue.
# query: Ki | item Cc1ccnc([C@@H](NC(=O)c2cc(Cn3ccn(C)c3=N)cc(OCC3CC3)c2)C2CC2)c1 [Example 182] | system: WDR5 (Homo sapiens (Human), UniProt P61964) 1

====

tested on: MV4:11 human cancer cell lines; assay: Anti-proliferative activity, CellTiter-Glo viability assay, 7 day protocol; assay type: cell-based; details: Homo sapiens, MV4-11, 168 h, MV4:11 cells, 7 day incubation, read-out: GI50 on cellular proliferation of MV4:11 human cancer cell lines
READOUT: GI50 (nM)
Write down the numeric answer in nM and omit the unit.

>  <MOLECULE>
Cc1cc([C@@H](NC(=O)c2cc(Cn3ccn(C)c3=N)cc(N3CCOC[C@H]3C)c2)C2CC2)ccc1F [Example 227]

>  <U>
nM

>  <GI50>
940

$$$$

Next item in the queue.
Recorded GI50 for COc1cc(CNC(=O)c2cc(Cn3ccn(C)c3=N)cc(-c3ccc(F)cc3C(F)(F)F)c2F)cc(OC)c1 [Example 108] , please? 310

====

target: WDR5 (Homo sapiens (Human)); experiment: TR-FRET binding assay (displacement of 10mer-Thr-FAM probe from WDR5); conditions: read-out: Ki for Inhibition of WDR5 by TR-FRET assay; TR-FRET, 10mer-Thr-FAM probe, WDR5-His tag 2 nM, pH 7.0
API: label(entry) gives criterion met if the entry's Ki is strictly smaller than 0.3 nM; on equality or larger values it gives criterion not met.

Previously resolved entries follow.
>  <COMPOUND>
Cc1ccc2[nH]ncc2c1-c1cc(Cn2ccn(C)c2=N)cc(C(=O)NCc2ccc(Cl)c(Cl)c2)c1 [Example 27]

>  <LABEL>
criterion not met

$$$$
>  <COMPOUND>
COc1cc(CNC(=O)c2cc(Cn3ccn(C)c3=N)cc(OCC3CC3)c2)cc(OC)c1 [Example 178]

>  <LABEL>
criterion not met

$$$$
>  <COMPOUND>
COc1cc(OC)cc(C(NC(=O)c2cc(Cn3ccoc3=N)cc(-c3ncccc3C(F)(F)F)c2)C2CC2)c1 (centres unmarked) [Example 235]

>  <LABEL>
criterion not met

$$$$
>  <COMPOUND>
Cn1ccn(Cc2cc(C(=O)N[C@H](c3ccc(Cl)c(Cl)c3)C3CC3)cc(-c3cccnc3C(F)(F)F)c2)c1=N [Example 153]

>  <LABEL>
criterion not met

$$$$
>  <COMPOUND>
CCn1cc(-c2cc(Cn3ccn(C)c3=N)cc(C(=O)NCc3ccc(F)c(C)c3)c2)c(C(F)(F)F)n1 [Example 198]

>  <LABEL>
criterion met

$$$$
>  <COMPOUND>
Cc1cc([C@@H](NC(=O)c2cc(CN3CCCSC3=N)cc(-c3cccnc3C(F)(F)F)c2)C2CC2)ccc1F [Example 315]

>  <LABEL>
criterion not met

$$$$
>  <COMPOUND>
Cc1cc([C@H](C)NC(=O)c2cc(Cn3ccn(C)c3=N)cc(OCC3CC3)c2)ccc1F [Example 181]

>  <LABEL>
criterion not met

$$$$
>  <COMPOUND>
Cc1cc(-c2cc(Cn3ccn(C)c3=N)cc(C(=O)NC(C3CC3)C3CC3)c2)ccn1 [Example 49]

>  <LABEL>
criterion not met

$$$$
>  <COMPOUND>
Cn1cc(-c2cc(Cn3ccn(C)c3=N)cc(C(=O)N[C@H](c3ccc(Cl)c(Cl)c3)C3CC3)c2)c(C(F)(F)F)n1 [Example 157]

>  <LABEL>
criterion met

$$$$
>  <COMPOUND>
CCOc1cc(Cn2ccn(C)c2=N)cc(C(=O)N[C@H](c2ccc(F)c(C)c2)C2CC2)c1 [Example 180]

>  <LABEL>
criterion met

$$$$

Check if Ki falls below 0.3 nM for CCn1cc(-c2cc(Cn3ccn(C)c3=N)cc(C(=O)NCc3ccc(=O)n(C)c3)c2)c(C(F)(F)F)n1 [Example 200] . criterion met

Check if Ki falls below 0.3 nM for Cc1cc([C@@H](NC(=O)c2cc(Cn3ccn(C4CC4)c3=N)cc(-c3ccc(F)cc3Cl)c2)C2CC2)ccc1F [Example 141] . criterion met

Check if Ki falls below 0.3 nM for N=c1n(Cc2cc(C(=O)N[C@H](c3ccc(Cl)c(Cl)c3)C3CC3)cc(-c3ccc(F)cc3OC(F)F)c2)ccn1C1CC1 [Example 151] . criterion not met

====

# GI50 annotations
test system: MV4:11 human cancer cell lines; assay: Anti-proliferative activity, CellTiter-Glo viability assay, 7 day protocol; type: cell-based; details: Homo sapiens, MV4-11, 168 h, MV4:11 cells, 7 day incubation, read-out: GI50 on cellular proliferation of MV4:11 human cancer cell lines
Write down the numeric answer in nM and omit the unit.

Some solved entries appear below for comparison.
>  <COMPOUND>
Cc1cc(CNC(=O)c2cc(Cn3ccn(C)c3=N)cc(-c3cccnc3C(F)(F)F)c2)ccc1Cl

>  <READOUT>
GI50

>  <NUMBER>
260

$$$$
>  <COMPOUND>
COc1cc(OC)cc(C(NC(=O)c2cc(Cn3ccn(C)c3=N)cc(-c3ccnn3C(C)C)c2)C2CC2)c1 (stereo not shown)

>  <READOUT>
GI50

>  <NUMBER>
6300

$$$$
>  <COMPOUND>
COc1cc(CNC(=O)c2cc(CN3CCSC3=N)cc(-c3ccc(F)cc3C)c2)cc(OC)c1

>  <READOUT>
GI50

>  <NUMBER>
630

$$$$

Recorded GI50 for Cc1cc(F)ccc1-c1cc(Cn2ccn(C)c2=N)cc(C(=O)NCc2ccc(Cl)c(Cl)c2)n1 , please? 240

====

molecular target: WDR5 (Homo sapiens (Human), UniProt P61964); experiment: TR-FRET binding assay (displacement of 10mer-Thr-FAM probe from WDR5); details: read-out: Ki for Inhibition of WDR5 by TR-FRET assay; TR-FRET, 10mer-Thr-FAM probe, WDR5-His tag 2 nM, pH 7.0
READOUT: Ki (nM)
Write down the numeric answer in nM and omit the unit.

>  <MOLECULE>
COc1cc(CNC(=O)c2cc(Cn3ccn(C)c3=N)cc(-c3ccc(F)cc3C(F)(F)F)c2)cc(OC)c1

>  <Ki (nM)>
0.06

$$$$

# query: Ki | item Cc1cc([C@@H](NC(=O)c2cc(CN3CCCOC3=N)cc(-c3cccnc3C(F)(F)F)c2)C2CC2)ccc1F [Example 362] | system: WDR5 (Homo sapiens (Human), UniProt P61964) 0.72

# query: Ki | item Cc1cc([C@@H](NC(=O)c2cc(Cn3ccn(C)c3=N)cc(-c3ncc(F)cc3C)c2)C2CC2)ccc1F | system: WDR5 (Homo sapiens (Human), UniProt P61964) 0.12

# query: Ki | item Cc1ccnc(C(NC(=O)c2cc(Cn3ccn(C)c3=N)cc(-c3ccc(F)cc3C)c2)C2CC2)c1 (centres unmarked) | system: WDR5 (Homo sapiens (Human), UniProt P61964) 0.15

# query: Ki | item Cc1cc(F)cc(F)c1-c1cc(Cn2ccn(C)c2=N)cc(C(=O)NCc2ccc(Cl)c(Cl)c2)c1 | system: WDR5 (Homo sapiens (Human), UniProt P61964) 0.35

# query: Ki | item CCOc1cc(Cn2ccn(C)c2=N)cc(C(=O)NCc2ccc(Cl)c(C)c2)c1 | system: WDR5 (Homo sapiens (Human), UniProt P61964) 0.71

# query: Ki | item Cc1cc(F)ccc1-c1cc(Cn2ccn(C)c2=N)cc(C(=O)N[C@@H](c2ccc(F)c(C)n2)C2CC2)c1 | system: WDR5 (Homo sapiens (Human), UniProt P61964) 0.21

# query: Ki | item Cc1cc([C@@H](NC(=O)c2cc(Cn3ccccc3=N)cc(-c3cc(C(F)(F)F)nn3C)c2)C2CC2)ccc1F | system: WDR5 (Homo sapiens (Human), UniProt P61964) 1.6

# query: Ki | item Cc1ccnc(C(NC(=O)c2cc(Cn3ccn(C)c3=N)cc(-c3ccc(F)cc3OC(F)F)c2)C2CC2)c1 (centres unmarked) | system: WDR5 (Homo sapiens (Human), UniProt P61964) 0.33

# query: Ki | item Cn1ccn(Cc2cc(C(=O)N[C@H](c3ccc(Cl)c(Cl)c3)C3CC3)cc(-c3ccc(F)cc3OC(F)F)c2)c1=N | system: WDR5 (Homo sapiens (Human), UniProt P61964) 0.13

Value source: patent US10844044B2
